- target entity: cyclophilin A (CypA) (Homo sapiens (Human), UniProt P62937)
- Sequence (P62937 whole entry): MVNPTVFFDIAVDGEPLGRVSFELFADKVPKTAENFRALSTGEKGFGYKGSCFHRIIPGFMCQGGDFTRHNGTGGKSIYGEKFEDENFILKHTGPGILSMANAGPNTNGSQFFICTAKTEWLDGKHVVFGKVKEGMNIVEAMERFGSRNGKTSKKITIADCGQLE
- assay info: Inhibitor binding to cyclophilin proteins by SPR, CypA;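 further: Single-cycle kinetics on a Biacore T200, compound injected at several concentrations for 1 min each at 50 µL/min, then 10 min dissociation, in HEPES pH 7.4 buffer with 3% DMSO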
- Set-up: unit not given here
- condition: 1:1 binding model
Starred links: 1 amine or outer side, 2 acyl side, 3 side chain; linkers in the order of their positions; H or OH if unused. Non-standard residues stand in square brackets, D forms with d. Residues, ends and D or L forms follow the SMILES beside them. X31 = C[C@H](CN1C[C@H](C)OC[C@@H]1C)[C@@H](C(=O)[*:2])N(C)[*:1]; MeBmt = C/C=C/C[C@@H](C)[C@@H](O)[C@H](NC)C(=O)O; NMeL = CN[C@@H](CC(C)C)C(=O)O; NMeV = CN[C@H](C(=O)O)C(C)C; dNMeA = CN[C@H](C)C(=O)O; Abu = CC[C@H](N)C(=O)O
observable: CypA Kd

INSERT INTO measurements (molecule, observed) VALUES
  ('C/C=C/C[C@@H](C)[C@@H](O)[C@H]1C(=O)N[C@@H](CC)C(=O)N(C)[C@H](C)C(=O)N(C)[C@@H]([C@H](C)CN2C[C@H](C)OC[C@@H]2C)C(=O)N[C@@H](C(C)C)C(=O)N(C)[C@@H](CC(C)C)C(=O)N[C@@H](C)C(=O)N[C@H](C)C(=O)N(C)[C@@H](CC(C)C)C(=O)N(C)[C@@H](CC(C)C)C(=O)N(C)[C@@H](C(C)C)C(=O)N1C [Compound 2.5.6] (cyclo(A[dA][NMeL][NMeL][NMeV][MeBmt][Abu][dNMeA][X31]V[NMeL]))', 5.0);

###

- target entity: UniProt P30405
- Sequence (P30405 30-207): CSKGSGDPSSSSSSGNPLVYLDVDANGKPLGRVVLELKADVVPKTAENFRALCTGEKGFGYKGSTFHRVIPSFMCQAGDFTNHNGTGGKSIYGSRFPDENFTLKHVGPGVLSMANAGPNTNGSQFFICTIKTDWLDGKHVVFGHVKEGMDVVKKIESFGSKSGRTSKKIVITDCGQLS
- assay info: Inhibitor binding to cyclophilin proteins by SPR, CypF
- condition: 1:1 binding model
Starred links: 1 amine or outer side, 2 acyl side, 3 side chain; linkers in the order of their positions; H or OH if unused. Non-standard residues stand in square brackets, D forms with d. Residues, ends and D or L forms follow the SMILES beside them. X1 = COC[C@@H]1CN(C[C@H](C)[C@@H](C(=O)[*:2])N(C)[*:1])CCO1; MeBmt = C/C=C/C[C@@H](C)[C@@H](O)[C@H](NC)C(=O)O; X24 = C[C@H](CO)[C@@H](C(=O)[*:2])N(C)[*:1]; NMeL = CN[C@@H](CC(C)C)C(=O)O; NMeV = CN[C@H](C(=O)O)C(C)C; dNMeA = CN[C@H](C)C(=O)O; Abu = CC[C@H](N)C(=O)O
The following molecules are shown together with reported CypF Kd values.
observable: CypF Kd (nM)

INSERT INTO results (molecule, observable, units_text, observed) VALUES
  ('C/C=C/C[C@@H](C)[C@@H](O)[C@H]1C(=O)N[C@@H](CC)C(=O)N(C)[C@H](C)C(=O)N(C)[C@@H]([C@@H](C)CN2CCO[C@H](COC)C2)C(=O)N[C@@H](C(C)C)C(=O)N(C)[C@@H](CC(C)C)C(=O)N[C@@H](C)C(=O)N[C@H](C)C(=O)N(C)[C@@H](CC(C)C)C(=O)N(C)[C@@H](CC(C)C)C(=O)N(C)[C@@H](C(C)C)C(=O)N1C [Compound 2.17.8] (cyclo(A[dA][NMeL][NMeL][NMeV][MeBmt][Abu][dNMeA][X1]V[NMeL]))', 'CypF Kd', 'nM', 0.6),
  ('C/C=C/C[C@@H](C)[C@@H](O)[C@H]1C(=O)N[C@@H](CC)C(=O)N(C)[C@H](C)C(=O)N(C)[C@@H]([C@H](C)CO)C(=O)N[C@@H](C(C)C)C(=O)N(C)[C@@H](CC(C)C)C(=O)N[C@@H](C)C(=O)N[C@H](C)C(=O)N(C)[C@@H](CC(C)C)C(=O)N(C)[C@@H](CC(C)C)C(=O)N(C)[C@@H](C(C)C)C(=O)N1C [Compound 2.5.1] (cyclo(A[dA][NMeL][NMeL][NMeV][MeBmt][Abu][dNMeA][X24]V[NMeL]))', 'CypF Kd', 'nM', 2.2);
